- Test system: human pancreatic cancer cell line PANC-1
- Assay comment: CTG proliferation inhibition, PANC-1
- Format: cell-based
- Assay conditions: 72 h incubation, read-out: IC50 (nM) of the test compounds for various tumor cell lines
- Description: Testing the inhibition effect of the compounds of Formula (I) and Formula II on the proliferation of various tumor cell lines by CTG method: The CellTiter-Glo Luminescent Cell Viability Assay (CTG) method was used to test the inhibition effect of the compounds of Formula (I) and Formula II on the proliferation of various tumor cell lines, and IC50 value was calculated. […]
Test readout: IC50 (nM)

// known answers, use as guide
>  <Compound>
CC(=O)OC12COC1CC(O)C1(C)C(=O)C(OC(=O)Nc3ccc(C(C)O)cc3)C3=C(C)C(OC(=O)C(O)C(NC(=O)OC(C)(C)C)c4ccccc4)CC(O)(C(OC(=O)c4ccccc4)C21)C3(C)C (stereo not shown) [Compound I-7]

>  <Reported result>
0.888

$$$$
>  <Compound>
CC(=O)OC12COC1CC(O)C1(C)C(=O)C(OC(=O)Nc3ccc(C(C)=O)cc3)C3=C(C)C(OC(=O)C(O)C(NC(=O)OC(C)(C)C)c4ccccc4)CC(O)(C(OC(=O)c4ccccc4)C21)C3(C)C (stereo not shown) [II, reference compound]

>  <Reported result>
3.35

$$$$

P. CC(=O)OC12COC1CC(O)C1(C)C(=O)C(OC(=O)Nc3ccc(C(C)O)cc3)C3=C(C)C(OC(=O)C(O)C(NC(=O)OC(C)(C)C)c4ccccc4)CC(O)(C(OC(=O)c4ccccc4)C21)C3(C)C (stereo not shown) [Compound I-1]
Q. CC(=O)OC12COC1CC(O)C1(C)C(=O)C(OC(=O)Nc3ccc(C(C)O)cc3)C3=C(C)C(OC(=O)C(O)C(NC(=O)OC(C)(C)C)c4ccccc4)CC(O)(C(OC(=O)c4ccccc4)C21)C3(C)C (stereo not shown) [Compound I-3]
Req: Compare P and Q by numeric IC50 and name the larger one. Refer to your chosen entry by its label in the reply.
Resp: P
